Origin of values: the supplement of paper PMC11061612

- Tested on: EW-11 (Ewing's Sarcoma)
- TEST: combination Emax (second highest fraction inhibited in the dose matrix, 72 h); higher = more inhibition; extreme values may be limits of the assay
Output 1.0 for combination Emax not less than 0.6; output 0.0 otherwise.

Please review the following examples before continuing.
MOLECULE	LABEL_VALUE
CN(CCO)CC[C@H](CSc1ccccc1)Nc1ccc(S(=O)(=O)NC(=O)c2ccc(N3CCC([C@@H](O)c4ccccc4-c4ccc(Cl)cc4)CC3)cc2)cc1S(=O)(=O)C(F)(F)F [AZD4320] + CS(=O)(=O)CCNCc1ccc(-c2ccc3ncnc(Nc4ccc(OCc5cccc(F)c5)c(Cl)c4)c3c2)o1 [Lapatinib] (first compound max 1 µM, 7x7, partner max 10 µM)	1.0
C[C@@H](c1ccc2nccn2c1)n1nnc2ncc(-c3cnn(C)c3)nc21 [Savolitinib] + CC1(C)CCC(CN2CCN(c3ccc(C(=O)NS(=O)(=O)c4ccc(NCC5CCOCC5)c([N+](=O)[O-])c4)c(Oc4cnc5[nH]ccc5c4)c3)CC2)=C(c2ccc(Cl)cc2)C1 [Venetoclax] (first compound max 1 µM, 7x7, partner max 1 µM)	0.0
Cc1nc(Nc2ncc(C(=O)Nc3c(C)cccc3Cl)s2)cc(N2CCN(CCO)CC2)n1 [Dasatinib] + CC(=O)Nc1cccc(-n2c(=O)n(C3CC3)c(=O)c3c(Nc4ccc(I)cc4F)n(C)c(=O)c(C)c32)c1 [Trametinib] (first compound max 2 µM, 7x7, partner max 1 µM)	0.0

# check: combination Emax of COc1cccc2c1C(=O)c1c(O)c3c(c(O)c1C2=O)C[C@@](O)(C(=O)CO)C[C@@H]3O[C@H]1C[C@H](N)[C@H](O)[C@H](C)O1 [Doxorubicin] + Cc1cc2ncnn2cc1Nc1ncc2c(n1)n(C1CCOCC1)c(=O)n2C [AZD7648] (first compound max 1 µM, 7x7, partner max 10 µM) is greater than or equal to 0.6
1.0

# check: combination Emax of CC1(C)CCC(CN2CCN(c3ccc(C(=O)NS(=O)(=O)c4ccc(NCC5CCOCC5)c([N+](=O)[O-])c4)c(Oc4cnc5[nH]ccc5c4)c3)CC2)=C(c2ccc(Cl)cc2)C1 [Venetoclax] + CS(=O)(=O)CCNCc1ccc(-c2ccc3ncnc(Nc4ccc(OCc5cccc(F)c5)c(Cl)c4)c3c2)o1 [Lapatinib] (first compound max 1 µM, 7x7, partner max 10 µM) is greater than or equal to 0.6
0.0

# check: combination Emax of Cc1c2c(nn1C)CSCc1cc(n(C)n1)CSc1cc(c3ccccc3c1)OCCCc1c(C(=O)O)n(C)c3c-2c(Cl)ccc13 [AZD5991] + CCN(CCO)CCCOc1ccc2c(Nc3cc(CC(=O)Nc4cccc(F)c4)[nH]n3)ncnc2c1 [AZD2811] (first compound max 1 µM, 7x7, partner max 1 µM) is greater than or equal to 0.6
1.0

# check: combination Emax of Cc1c2c(nn1C)CSCc1cc(n(C)n1)CSc1cc(c3ccccc3c1)OCCCc1c(C(=O)O)n(C)c3c-2c(Cl)ccc13 [AZD5991] + CS(=O)(=O)CCNCc1ccc(-c2ccc3ncnc(Nc4ccc(OCc5cccc(F)c5)c(Cl)c4)c3c2)o1 [Lapatinib] (first compound max 1 µM, 7x7, partner max 10 µM) is greater than or equal to 0.6
0.0

# check: combination Emax of COc1nnc2ccc(N3CCC(c4ccc(OCCN5CCN(C)C(=O)[C@H]5C)cc4)CC3)nn12 [AZD5153] + CC1(C)CCC(CN2CCN(c3ccc(C(=O)NS(=O)(=O)c4ccc(NCC5CCOCC5)c([N+](=O)[O-])c4)c(Oc4cnc5[nH]ccc5c4)c3)CC2)=C(c2ccc(Cl)cc2)C1 [Venetoclax] (first compound max 1 µM, 7x7, partner max 1 µM) is greater than or equal to 0.6
0.0

# check: combination Emax of Cc1cc2ncnn2cc1Nc1ncc2c(n1)n(C1CCOCC1)c(=O)n2C [AZD7648] + COc1cc([C@@H]2c3cc4c(cc3[C@@H](O[C@@H]3O[C@@H]5CO[C@@H](C)O[C@H]5[C@H](O)[C@H]3O)[C@H]3COC(=O)[C@H]23)OCO4)cc(OC)c1O [Etoposide] (first compound max 10 µM, 7x7, partner max 10 µM) is greater than or equal to 0.6
1.0

# check: combination Emax of CN(CCO)CC[C@H](CSc1ccccc1)Nc1ccc(S(=O)(=O)NC(=O)c2ccc(N3CCC([C@@H](O)c4ccccc4-c4ccc(Cl)cc4)CC3)cc2)cc1S(=O)(=O)C(F)(F)F [AZD4320] + CCN(CCO)CCCOc1ccc2c(Nc3cc(CC(=O)Nc4cccc(F)c4)[nH]n3)ncnc2c1 [AZD2811] (first compound max 1 µM, 7x7, partner max 1 µM) is greater than or equal to 0.6
1.0

###

- Tested on: OE21 (Esophageal Squamous Cell Carcinoma);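 also: after 72 h of two-drug dosing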
- TEST: Bliss excess, mean over the matrix (fraction); higher = more synergy
Items are presented alongside their recorded Bliss excess.

COMPOUND	MEASUREMENT_TARGET	ENDPOINT_RESULT
NC1(C(=O)N[C@@H](CCO)c2ccc(Cl)cc2)CCN(c2ncnc3[nH]ccc23)CC1 [Capivasertib] + CC(C)n1c(=O)n(C)c2cnc3cc(F)c(-c4ccc(OCCCN5CCCCC5)nc4)cc3c21 [AZD1390] (first compound max 10 µM, 7x7, partner max 0.3 µM)	OE21 (Esophageal Squamous Cell Carcinoma)	-0.0474

Consider the additional compound presented here.
Name the recorded Bliss excess for Cc1c2c(nn1C)CSCc1cc(n(C)n1)CSc1cc(c3ccccc3c1)OCCCc1c(C(=O)O)n(C)c3c-2c(Cl)ccc13 [AZD5991] + C[C@@H](Nc1cc(F)cc(F)c1)c1cc(C(=O)N(C)C)cc2c(=O)cc(N3CCOCC3)oc12 [AZD8186] (first compound max 1 µM, 7x7, partner max 3 µM) .
0.0258

###

- Tested on: SNU-449 (Hepatocellular Carcinoma)
- TEST: combination Emax (second highest fraction inhibited in the dose matrix, 72 h); higher = more inhibition; extreme values may be limits of the assay
MEASURED_PARAMETER: combination Emax
No unit in the answer, only the number.

Example cases with answers are listed next.
COMPOUND	ENDPOINT_RESULT
Cc1c2c(nn1C)CSCc1cc(n(C)n1)CSc1cc(c3ccccc3c1)OCCCc1c(C(=O)O)n(C)c3c-2c(Cl)ccc13 [AZD5991] + CN(C)CCCOc1ccc(-c2ccc3ncc4c(c3c2)n(C2CCOCC2)c(=O)n4C)cn1 [AZD0156] (first compound max 1 µM, 7x7, partner max 1 µM)	0.25
N#Cc1cnc(Nc2cc(NC[C@H]3CNCCO3)c(C(F)(F)F)cn2)cn1 [SRA737] + Nc1ccn([C@@H]2O[C@H](CO)[C@@H](O)C2(F)F)c(=O)n1 [Gemcitabine] (first compound max 10 µM, 7x7, partner max 0.3 µM)	0.515

Consider the additional compound presented here.
Give SNU-449 (Hepatocellular Carcinoma) combination Emax for Cc1c2c(nn1C)CSCc1cc(n(C)n1)CSc1cc(c3ccccc3c1)OCCCc1c(C(=O)O)n(C)c3c-2c(Cl)ccc13 [AZD5991] + CC(=O)O[C@H]1C(=O)[C@@]2(C)[C@H]([C@H](OC(=O)c3ccccc3)[C@]3(O)C[C@H](OC(=O)[C@H](O)[C@@H](NC(=O)c4ccccc4)c4ccccc4)C(C)=C1C3(C)C)[C@]1(OC(C)=O)CO[C@@H]1C[C@@H]2O [Paclitaxel] (first compound max 1 µM, 7x7, partner max 3 µM)
0.325

###

Items are presented alongside their recorded combination Emax.
- Tested on: SAS (Oral Cavity Carcinoma)
- TEST: combination Emax (second highest fraction inhibited in the dose matrix, 72 h); higher = more inhibition; extreme values may be limits of the assay
No unit in the answer, only the number.

COMPOUND	combination Emax
COc1cccc(OCCCN)c1-c1cc(Nc2cnc(C#N)cn2)n[nH]1 [Prexasertib] + Cc1cc2ncnn2cc1Nc1ncc2c(n1)n(C1CCOCC1)c(=O)n2C [AZD7648] (first compound max 1 µM, 7x7, partner max 10 µM)	0.926
COc1nnc2ccc(N3CCC(c4ccc(OCCN5CCN(C)C(=O)[C@H]5C)cc4)CC3)nn12 [AZD5153] + Cn1cnc2c(F)c(Nc3ccc(Br)cc3Cl)c(C(=O)NOCCO)cc21 [Selumetinib] (first compound max 1 µM, 7x7, partner max 10 µM)	0.86

Name the recorded combination Emax for COc1cccc(OCCCN)c1-c1cc(Nc2cnc(C#N)cn2)n[nH]1 [Prexasertib] + CCc1c2c(nc3ccc(O)cc13)-c1cc3c(c(=O)n1C2)COC(=O)[C@]3(O)CC [SN-38] (first compound max 1 µM, 7x7, partner max 0.3 µM) .
0.999

Name the recorded combination Emax for C=CCn1c(=O)c2cnc(Nc3ccc(N4CCN(C)CC4)cc3)nc2n1-c1cccc(C(C)(C)O)n1 [AZD1775] + C[C@@H]1COCCN1C2=NC(=NC(=C2)C3(CC3)[S@](=N)(=O)C)C4=C5C=CNC5=NC=C4 [AZD6738] (first compound max 1 µM, partner max 10 µM) .
0.908
